- RUN DESCRIPTION: Clearance in dog hepatocytes assessed per million cells by HPLC/atmospheric pressure chemical ionization/MS analysis
- Type: ADME, cell-based, Canis lupus familiaris, Hepatocyte
- CONDITION DETAILS: read-out: CLH
RECORDED ENDPOINT: hepatocyte CLint

Query O=S(=O)(CC[C@@H]1OCC[C@@]2(S(=O)(=O)c3ccc(Cl)cc3)c3c(F)ccc(F)c3OC[C@@H]12)CC1=NCCN1 yields hepatocyte CLint of 20.1 µL/min/1e6 cells

Entry under test: O=S(=O)(CC[C@@H]1OCC[C@@]2(S(=O)(=O)c3ccc(Cl)cc3)c3c(F)ccc(F)c3OC[C@@H]12)[C@@H]1CCNC1 . Its hepatocyte CLint was 17.9 µL/min/1e6 cells

response.value for O=S(=O)(CC[C@@H]1OCC[C@@]2(S(=O)(=O)c3ccc(Cl)cc3)c3c(F)ccc(F)c3OC[C@@H]12)[C@H]1CCNC1 (field: hepatocyte CLint) = 21.1 µL/min/1e6 cells

// CNCCS(=O)(=O)CC[C@@H]1OCC[C@@]2(S(=O)(=O)c3ccc(Cl)cc3)c3c(F)ccc(F)c3OC[C@@H]12 : hepatocyte CLint value = 11.5 µL/min/1e6 cells

Please fill in: hepatocyte CLint reported for O=S(=O)(CC[C@@H]1OCC[C@@]2(S(=O)(=O)c3ccc(Cl)cc3)c3c(F)ccc(F)c3OC[C@@H]12)C[C@H]1CCCN1 = 13.6 µL/min/1e6 cells

// sample O=S(=O)(CC[C@@H]1OCC[C@@]2(S(=O)(=O)c3ccc(Cl)cc3)c3c(F)ccc(F)c3OC[C@@H]12)C[C@@H]1CCCN1 , its hepatocyte CLint was 12.5 µL/min/1e6 cells

Lab book: hepatocyte CLint of CN(C)CCS(=O)(=O)CC[C@@H]1OCC[C@@]2(S(=O)(=O)c3ccc(Cl)cc3)c3c(F)ccc(F)c3OC[C@@H]12 noted as 56.5 µL/min/1e6 cells
